Would you mind telling me the reported EC50 of each entry?
system: A549; experiment: Cytotoxicity against human A549 cells after 7 days by MTT assay; format: functional; settings: A549, 168 h, read-out: ED50 (the source's name)
The figure you give is taken to be in µg/mL; do not add the unit.

Query: Would you mind telling me what EC50 value was observed for COc1cc2c(cc1C(C)=O)C=CC(C)(C)O2 ?
Result: 25

Query: I'd like to know its EC50. The molecule in question is C=C(C)[C@H]1Cc2cc(C(C)=O)c(OC)cc2O1
Result: 1

Query: Reported EC50 for COc1cccc2c1C(=O)c1c(O)c3c(c(O)c1C2=O)C[C@@](O)(C(=O)CO)C[C@@H]3O[C@H]1C[C@H](N)[C@H](O)[C@H](C)O1 : what is it?
Result: 0.002

Query: Quick one: EC50 for C=C(C)[C@@H]1Oc2cc(O)c(C(C)=O)cc2[C@H]1OC ?
Result: 31

Query: Which EC50 is listed for CC(=O)c1cc2c(cc1O)OC(C)(C)C=C2 ?
Result: 10

Query: Entry C=C(C)c1cc2cc(C(C)=O)c(O)cc2o1 has what EC50?
Result: 22

Query: Entry COC(C)(C)/C=C/c1cc(C(C)=O)ccc1O[C@@H]1O[C@H](CO)[C@@H](O)[C@H](O)[C@H]1O : reported EC50 = ?
Result: 6
